Entry source: the kinase profiling compilation of Christmann-Franck et al. (2016)

- tested-system: IRAK4 (human) (UniProt Q9NWZ3)
- Sequence (Q9NWZ3 whole entry, looked up): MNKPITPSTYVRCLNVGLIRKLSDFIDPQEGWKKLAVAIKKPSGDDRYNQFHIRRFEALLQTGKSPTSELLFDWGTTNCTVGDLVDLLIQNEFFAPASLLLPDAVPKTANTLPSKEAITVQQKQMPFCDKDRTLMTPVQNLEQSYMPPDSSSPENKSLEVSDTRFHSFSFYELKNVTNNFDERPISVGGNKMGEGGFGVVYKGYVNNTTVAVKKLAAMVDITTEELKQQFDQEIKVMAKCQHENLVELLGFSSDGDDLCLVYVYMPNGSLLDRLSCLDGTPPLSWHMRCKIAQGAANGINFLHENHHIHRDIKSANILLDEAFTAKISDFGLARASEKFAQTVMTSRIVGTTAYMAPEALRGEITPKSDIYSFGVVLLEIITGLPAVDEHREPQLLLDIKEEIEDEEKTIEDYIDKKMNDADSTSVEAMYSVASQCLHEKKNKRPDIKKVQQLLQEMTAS
- test-description: radiometric filter-binding kinase assay, Kinase HotSpot
- experimental-conditions: compound 0.5 µM; ATP 10 µM
Exercise: for every item that follows, state its recorded residual activity.
Report the value in % with no unit label.

Need residual activity, item "Oc1ccc(-c2nc(-c3ccc(F)cc3)c(-c3ccncc3)[nH]2)cc1"
124

Please answer likewise for "CC(C)n1cnc2c(Nc3cccc(Cl)c3)nc(NCCO)nc21"
95.2

Please answer likewise for O=C(NC(NC(=S)Nc1ccc(F)c([N+](=O)[O-])c1)C(Cl)(Cl)Cl)C(c1ccccc1)c1ccccc1 (centres undefined)
191

Please answer likewise for "C#Cc1cccc(Nc2ncnc3cc(OCCOC)c(OCCOC)cc23)c1"
93.8

###

- tested-system: UniProt:P09769
- Sequence (P09769 whole entry, looked up): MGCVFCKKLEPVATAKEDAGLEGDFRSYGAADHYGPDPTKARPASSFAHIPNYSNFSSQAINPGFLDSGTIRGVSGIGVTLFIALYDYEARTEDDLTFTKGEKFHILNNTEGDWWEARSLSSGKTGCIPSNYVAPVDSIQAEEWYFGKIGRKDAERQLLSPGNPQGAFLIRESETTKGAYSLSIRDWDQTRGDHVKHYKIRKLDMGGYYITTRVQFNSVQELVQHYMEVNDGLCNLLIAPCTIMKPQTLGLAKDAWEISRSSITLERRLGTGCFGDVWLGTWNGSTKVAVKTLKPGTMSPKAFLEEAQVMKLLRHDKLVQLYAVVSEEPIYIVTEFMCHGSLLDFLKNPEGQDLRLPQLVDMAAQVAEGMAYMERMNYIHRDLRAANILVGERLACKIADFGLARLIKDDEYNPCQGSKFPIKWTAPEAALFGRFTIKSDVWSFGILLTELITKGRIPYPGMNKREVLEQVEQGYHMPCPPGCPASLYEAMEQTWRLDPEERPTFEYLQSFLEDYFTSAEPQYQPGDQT
- test-description: radiometric filter-binding kinase assay, Kinase HotSpot
- experimental-conditions: compound 0.5 µM; ATP 10 µM
Classify: true when residual activity is strictly less than 60%; false when residual activity is not.

Bench note: check whether "O=C1Nc2ccccc2/C1=C\c1c(Cl)[nH]c2ccccc12" shows residual activity below 60%
false

Please answer likewise for "O=C1Cc2c([nH]c3ccc([N+](=O)[O-])cc23)-c2ccccc2N1"
true

Please answer likewise for "CCCNC(=O)Nc1ccc(Oc2ncnc3cc(OC)c(OC)cc23)cc1Cl"
false

Please answer likewise for "O=c1cc(-c2cccc3c2Sc2ccccc2S3)oc(N2CCOCC2)c1"
false

Please answer likewise for "NC(=O)c1ccc(N(C(N)=O)c2c(F)cccc2F)nc1-c1ccc(F)cc1F"
false

Please answer likewise for "Cc1cc2ncc(-c3ccccc3)nc2cc1C"
false

Please answer likewise for "CC(C)(C)c1nc2c3ccc(F)cc3c3c(=O)[nH]ccc3c2[nH]1"
false

Please answer likewise for "O=c1cc(N2CCNCC2)oc2c(-c3ccccc3)cccc12"
false

Please answer likewise for "COc1cc2ncnc(Nc3ccc(F)c(Cl)c3)c2cc1OCCCN1CCOCC1"
false

Please answer likewise for "Clc1ccc(Nc2nnc(Cc3ccncc3)c3ccccc23)cc1"
false

Please answer likewise for "CCN1/C(=C/C(C)=O)Sc2ccc(OC)cc21"
false

Please answer likewise for CSc1nc(-c2ccc(F)cc2)c(-c2ccnc(NC(C)c3ccccc3)c2)[nH]1 (configuration not stated)
false

Please answer likewise for "CC(C)[C@H](CO)Nc1nc(Nc2cccc(Cl)c2)c2ncn(C(C)C)c2n1"
true

Please answer likewise for "COc1cc2nccc(Oc3ccc(NC(=S)NC(=O)c4ccccc4C)cc3)c2cc1OC"
true

Please answer likewise for "Nc1nc(Nc2ccc(S(N)(=O)=O)cc2)nn1C(=O)c1c(F)cccc1F"
false

Please answer likewise for "Nc1nc(Nc2ccc(S(N)(=O)=O)cc2)nn1C(=S)Nc1c(F)cccc1F"
true

Please answer likewise for "COc1ccc(-c2cnc3c(-c4ccsc4)cnn3c2)cc1"
false

Please answer likewise for "O=C1Nc2cc(Br)ccc2/C1=C1/Nc2ccccc2/C1=N\O"
true

Please answer likewise for O=C(NC(NC(=S)Nc1ccc(F)c([N+](=O)[O-])c1)C(Cl)(Cl)Cl)C(c1ccccc1)c1ccccc1 (configuration not stated)
false

Please answer likewise for "Cc1ccc(NC(=O)c2ccc(CN3CCN(C)CC3)cc2)cc1Nc1nc(-c2cccnc2)cs1"
true

Please answer likewise for CS(=O)c1ccc(-c2nc(-c3ccc(F)cc3)c(-c3ccncc3)[nH]2)cc1 (configuration not stated)
false
